For each of the molecules below, state its pIC50.
Measured target: Lysine-specific demethylase 5B (Homo sapiens, UniProt Q9UGL1)
Sequence (Q9UGL1 whole entry): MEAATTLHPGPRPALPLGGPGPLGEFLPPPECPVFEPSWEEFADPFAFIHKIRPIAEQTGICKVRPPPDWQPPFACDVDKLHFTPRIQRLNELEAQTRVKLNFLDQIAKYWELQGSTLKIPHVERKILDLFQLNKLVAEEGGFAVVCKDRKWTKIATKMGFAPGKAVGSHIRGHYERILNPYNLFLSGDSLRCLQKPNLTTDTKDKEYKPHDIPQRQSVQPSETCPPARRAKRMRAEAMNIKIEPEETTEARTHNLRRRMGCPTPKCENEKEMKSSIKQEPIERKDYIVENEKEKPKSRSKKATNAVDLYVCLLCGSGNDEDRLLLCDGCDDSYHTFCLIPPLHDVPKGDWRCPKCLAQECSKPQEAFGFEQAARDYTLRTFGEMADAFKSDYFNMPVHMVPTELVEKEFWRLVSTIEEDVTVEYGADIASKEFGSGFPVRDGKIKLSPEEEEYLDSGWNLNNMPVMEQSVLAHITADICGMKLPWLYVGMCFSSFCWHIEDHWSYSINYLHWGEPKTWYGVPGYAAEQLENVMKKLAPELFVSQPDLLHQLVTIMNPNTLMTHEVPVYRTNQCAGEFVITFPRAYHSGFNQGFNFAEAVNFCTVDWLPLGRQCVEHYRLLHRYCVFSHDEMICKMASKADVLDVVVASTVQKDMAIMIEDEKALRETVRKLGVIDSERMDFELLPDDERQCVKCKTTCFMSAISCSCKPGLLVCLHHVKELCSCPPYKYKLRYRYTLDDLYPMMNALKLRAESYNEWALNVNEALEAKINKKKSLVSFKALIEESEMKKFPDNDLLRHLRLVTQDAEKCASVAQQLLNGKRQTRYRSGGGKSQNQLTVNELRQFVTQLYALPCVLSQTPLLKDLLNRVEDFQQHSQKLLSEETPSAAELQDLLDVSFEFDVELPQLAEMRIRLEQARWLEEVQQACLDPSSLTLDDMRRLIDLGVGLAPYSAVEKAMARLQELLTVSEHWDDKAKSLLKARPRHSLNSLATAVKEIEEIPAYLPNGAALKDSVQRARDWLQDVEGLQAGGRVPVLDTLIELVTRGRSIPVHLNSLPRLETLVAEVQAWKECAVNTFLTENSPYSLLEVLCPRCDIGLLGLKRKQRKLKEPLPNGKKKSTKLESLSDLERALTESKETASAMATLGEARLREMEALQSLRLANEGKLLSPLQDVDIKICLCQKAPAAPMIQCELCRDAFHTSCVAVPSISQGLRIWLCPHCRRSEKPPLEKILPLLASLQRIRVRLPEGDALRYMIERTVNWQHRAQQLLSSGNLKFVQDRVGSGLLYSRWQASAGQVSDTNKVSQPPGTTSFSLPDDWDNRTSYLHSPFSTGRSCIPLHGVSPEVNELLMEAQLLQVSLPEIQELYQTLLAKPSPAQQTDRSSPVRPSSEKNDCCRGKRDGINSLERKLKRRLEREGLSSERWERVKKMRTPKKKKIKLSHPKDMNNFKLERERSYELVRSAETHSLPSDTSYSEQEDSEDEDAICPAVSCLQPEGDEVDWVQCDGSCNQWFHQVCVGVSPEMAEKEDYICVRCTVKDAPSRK
Assay procedure: Inhibition of KDM5B in human U2OS cells assessed as reduction in demethylation of H3K4me3 after 20 hrs by Hoechst 33342 staining based immunofluorescence assay
Type: cell-based
pIC50: −log10 of the molar value.

These solved cases illustrate the format of a correct answer.
Can you share its pIC50? I mean this molecule: CCN(CCN(C)C)C(=O)CNCc1cc(C(=O)OC)ccn1
> 6.00

Can you share its pIC50? I mean this molecule: CCN(CCN(C)C)C(=O)CNCc1cc(C(=O)O)ccn1
6.00

Next, consider the following molecule.
Can you share its pIC50? I mean this molecule: CCOC(=O)c1ccnc(CNCC(=O)N(CC)CCN(C)C)c1
> 6.00

----------
Measured target: Lysine-specific demethylase 4A (Homo sapiens, UniProt O75164)
Sequence (O75164 whole entry): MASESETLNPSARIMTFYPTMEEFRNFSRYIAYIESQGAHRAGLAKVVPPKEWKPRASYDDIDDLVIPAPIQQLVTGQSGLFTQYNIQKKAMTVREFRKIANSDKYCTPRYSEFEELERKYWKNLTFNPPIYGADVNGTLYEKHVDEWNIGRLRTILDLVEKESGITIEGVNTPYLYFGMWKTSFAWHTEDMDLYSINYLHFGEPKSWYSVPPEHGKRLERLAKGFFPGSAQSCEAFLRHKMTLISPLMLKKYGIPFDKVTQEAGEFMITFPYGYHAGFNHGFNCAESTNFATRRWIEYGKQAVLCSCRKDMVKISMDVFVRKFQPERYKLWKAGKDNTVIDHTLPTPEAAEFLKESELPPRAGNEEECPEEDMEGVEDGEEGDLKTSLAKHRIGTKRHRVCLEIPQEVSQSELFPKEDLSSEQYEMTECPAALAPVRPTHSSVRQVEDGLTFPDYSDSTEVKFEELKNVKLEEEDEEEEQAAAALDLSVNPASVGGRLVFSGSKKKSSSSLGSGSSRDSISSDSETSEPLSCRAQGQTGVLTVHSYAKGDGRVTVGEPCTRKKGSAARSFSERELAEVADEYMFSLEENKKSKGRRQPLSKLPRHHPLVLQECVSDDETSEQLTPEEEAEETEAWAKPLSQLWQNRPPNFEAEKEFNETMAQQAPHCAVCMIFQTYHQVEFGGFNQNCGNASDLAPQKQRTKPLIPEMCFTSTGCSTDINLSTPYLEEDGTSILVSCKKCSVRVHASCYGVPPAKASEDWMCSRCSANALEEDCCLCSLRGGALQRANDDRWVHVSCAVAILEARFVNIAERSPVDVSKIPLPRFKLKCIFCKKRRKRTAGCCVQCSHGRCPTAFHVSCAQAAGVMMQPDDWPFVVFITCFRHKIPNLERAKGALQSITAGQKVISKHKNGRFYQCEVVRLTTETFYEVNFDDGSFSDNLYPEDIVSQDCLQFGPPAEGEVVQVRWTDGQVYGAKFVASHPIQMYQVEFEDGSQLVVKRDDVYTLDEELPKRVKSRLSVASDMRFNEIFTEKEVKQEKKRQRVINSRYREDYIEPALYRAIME
Endpoint label: IC50

IC50 of NNC(=O)Cc1nnn[nH]1 on Lysine-specific demethylase 4A (Homo sapiens, UniProt O75164)?
46.6 µM

----------
Measured target: Lysine-specific demethylase 5A (Homo sapiens, UniProt P29375)
Sequence (P29375 whole entry): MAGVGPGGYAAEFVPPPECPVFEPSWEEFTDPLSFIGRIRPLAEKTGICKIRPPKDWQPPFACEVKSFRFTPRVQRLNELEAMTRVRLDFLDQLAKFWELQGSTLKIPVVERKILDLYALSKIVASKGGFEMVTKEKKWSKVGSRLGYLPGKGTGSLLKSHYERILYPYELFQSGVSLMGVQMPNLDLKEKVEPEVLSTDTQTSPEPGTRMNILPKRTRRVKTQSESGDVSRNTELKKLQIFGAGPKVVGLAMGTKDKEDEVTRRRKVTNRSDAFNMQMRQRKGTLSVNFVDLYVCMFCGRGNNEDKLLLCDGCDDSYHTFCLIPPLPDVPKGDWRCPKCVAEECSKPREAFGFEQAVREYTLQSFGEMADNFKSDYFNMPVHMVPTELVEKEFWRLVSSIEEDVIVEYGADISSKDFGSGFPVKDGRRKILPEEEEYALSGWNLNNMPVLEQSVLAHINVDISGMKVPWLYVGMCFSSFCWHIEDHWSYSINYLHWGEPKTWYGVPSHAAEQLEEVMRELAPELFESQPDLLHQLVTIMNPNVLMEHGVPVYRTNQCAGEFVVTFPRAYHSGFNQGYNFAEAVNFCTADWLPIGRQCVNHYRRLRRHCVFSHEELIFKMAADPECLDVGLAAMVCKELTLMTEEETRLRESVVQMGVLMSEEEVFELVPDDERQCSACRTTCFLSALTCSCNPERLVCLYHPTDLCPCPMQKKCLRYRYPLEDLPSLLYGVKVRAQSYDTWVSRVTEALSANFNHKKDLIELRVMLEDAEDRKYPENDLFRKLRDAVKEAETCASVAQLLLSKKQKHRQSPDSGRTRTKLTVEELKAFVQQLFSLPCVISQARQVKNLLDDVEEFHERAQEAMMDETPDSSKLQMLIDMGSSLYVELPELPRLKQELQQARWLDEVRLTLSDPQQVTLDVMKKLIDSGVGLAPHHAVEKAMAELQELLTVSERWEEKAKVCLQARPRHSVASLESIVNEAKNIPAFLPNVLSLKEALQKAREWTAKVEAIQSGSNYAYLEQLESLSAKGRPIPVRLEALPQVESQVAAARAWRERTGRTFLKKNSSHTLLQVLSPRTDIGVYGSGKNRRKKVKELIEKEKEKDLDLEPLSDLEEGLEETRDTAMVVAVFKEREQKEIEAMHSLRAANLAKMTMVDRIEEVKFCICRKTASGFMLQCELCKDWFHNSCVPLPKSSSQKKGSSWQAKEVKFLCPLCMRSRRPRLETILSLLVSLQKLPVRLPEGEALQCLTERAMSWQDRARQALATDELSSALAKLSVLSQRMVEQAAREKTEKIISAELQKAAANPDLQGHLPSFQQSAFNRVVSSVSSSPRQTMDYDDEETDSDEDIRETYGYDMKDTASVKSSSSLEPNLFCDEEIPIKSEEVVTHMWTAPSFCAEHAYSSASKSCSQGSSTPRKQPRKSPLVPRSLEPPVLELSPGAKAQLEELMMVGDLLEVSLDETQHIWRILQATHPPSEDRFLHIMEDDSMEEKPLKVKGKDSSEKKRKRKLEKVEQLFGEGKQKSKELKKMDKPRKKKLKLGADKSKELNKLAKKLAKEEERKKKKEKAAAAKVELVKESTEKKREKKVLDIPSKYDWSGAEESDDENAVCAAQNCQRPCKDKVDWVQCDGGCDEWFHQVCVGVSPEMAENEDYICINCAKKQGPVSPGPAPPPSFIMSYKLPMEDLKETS
Assay procedure: biochemical
For each of the compounds below, state its pIC50.
One number for each entry, as −log10 of the molar value.

These solved cases illustrate the format of a correct answer.
pIC50 of O=C(O)c1ccnc2cc(OCc3ccc(Cl)c(OC(F)(F)F)c3)[nH]c12 on Lysine-specific demethylase 5A (Homo sapiens, UniProt P29375)?
7.00

pIC50 of O=C(O)c1ccncc1NCC12CC3CC(CC(C3)C1)C2 on Lysine-specific demethylase 5A (Homo sapiens, UniProt P29375)?
7.00

pIC50 of COc1cc(COc2cc3nccc(C(=O)O)c3[nH]2)ccc1Cl on Lysine-specific demethylase 5A (Homo sapiens, UniProt P29375)?
6.00

Next, consider the following compound.
pIC50 of COc1ccc(-c2c(-c3cc(C(=O)O)ccn3)ncn2C)cc1 on Lysine-specific demethylase 5A (Homo sapiens, UniProt P29375)?
7.00

----------
Measured target: Lysine-specific demethylase 2A (Homo sapiens)
Sequence (Q9Y2K7 whole entry): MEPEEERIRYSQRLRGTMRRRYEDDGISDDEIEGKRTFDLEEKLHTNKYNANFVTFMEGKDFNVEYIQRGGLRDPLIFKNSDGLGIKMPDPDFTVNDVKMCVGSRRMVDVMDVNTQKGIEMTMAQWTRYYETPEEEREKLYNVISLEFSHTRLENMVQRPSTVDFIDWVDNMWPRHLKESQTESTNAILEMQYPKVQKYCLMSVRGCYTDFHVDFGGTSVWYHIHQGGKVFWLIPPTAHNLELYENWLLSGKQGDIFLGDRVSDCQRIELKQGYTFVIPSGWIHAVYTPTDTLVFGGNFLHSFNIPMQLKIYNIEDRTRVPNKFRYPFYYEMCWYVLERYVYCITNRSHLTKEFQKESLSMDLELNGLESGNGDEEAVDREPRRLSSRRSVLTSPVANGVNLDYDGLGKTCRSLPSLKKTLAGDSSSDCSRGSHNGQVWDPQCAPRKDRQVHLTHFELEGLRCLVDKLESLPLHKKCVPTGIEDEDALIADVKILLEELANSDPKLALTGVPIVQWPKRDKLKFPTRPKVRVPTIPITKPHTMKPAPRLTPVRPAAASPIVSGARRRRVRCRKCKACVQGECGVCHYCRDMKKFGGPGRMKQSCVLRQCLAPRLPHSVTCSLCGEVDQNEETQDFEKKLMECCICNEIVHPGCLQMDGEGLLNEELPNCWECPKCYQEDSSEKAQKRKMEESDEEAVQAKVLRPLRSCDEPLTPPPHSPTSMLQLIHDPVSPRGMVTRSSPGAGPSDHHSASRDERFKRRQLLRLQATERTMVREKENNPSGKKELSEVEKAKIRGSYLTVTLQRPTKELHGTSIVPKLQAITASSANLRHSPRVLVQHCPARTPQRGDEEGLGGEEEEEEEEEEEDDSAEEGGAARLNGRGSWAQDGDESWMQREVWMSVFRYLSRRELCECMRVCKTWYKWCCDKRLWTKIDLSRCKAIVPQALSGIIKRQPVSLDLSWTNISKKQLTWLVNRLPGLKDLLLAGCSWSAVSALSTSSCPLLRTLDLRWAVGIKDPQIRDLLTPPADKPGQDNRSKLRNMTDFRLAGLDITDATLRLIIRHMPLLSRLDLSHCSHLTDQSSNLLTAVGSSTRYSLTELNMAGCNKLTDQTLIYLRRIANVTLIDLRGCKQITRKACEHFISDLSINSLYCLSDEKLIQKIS
Assay procedure: Competitive inhibition of recombinant His6-tagged KDM2A (1 to 517 residues) (unknown origin) expressed in Escherichia coli BL21 cells using methylstat as substrate preincubated for 30 mins followed by substrate addition measured after 4 hrs by fluorescence polarization assay
Endpoint label: Ki (nM)
Numbers only, in nM.

Ki of CCCCCC[n+]1ccc(/C=C/c2ccc(N(C)C)cc2)cc1 on Lysine-specific demethylase 2A (Homo sapiens)?
280

----------
Measured target: Lysine-specific demethylase 5B (Homo sapiens, UniProt Q9UGL1)
For each of the molecules below, state its IC50.

Below are some molecules; for each one, tell me its IC50.
1. Cn1cnc(-c2cc(-c3nn[nH]n3)ccn2)c1
2. Cn1cnc(-c2cc(C(=O)O)ccn2)c1
3. Cc1cc(Cl)ccc1COc1ccnn1-c1cc(C(=O)O)ccn1

1. > 10 µM
2. > 10 µM
3. < 0.1 µM

----------
What follows is a record of IC50 for Lysine-specific demethylase 5A (Homo sapiens).

These solved cases illustrate the format of a correct answer.
IC50 of Cn1cnc(-c2cc(C(=O)O)ccn2)c1 on Lysine-specific demethylase 5A (Homo sapiens)?
> 10 µM

IC50 of Cc1cc(Cl)ccc1COc1ccnn1-c1cc(C(=O)O)ccn1 on Lysine-specific demethylase 5A (Homo sapiens)?
< 0.1 µM

Next, consider the following molecule.
IC50 of Cn1cnc(-c2cc(-c3nn[nH]n3)ccn2)c1 on Lysine-specific demethylase 5A (Homo sapiens)?
> 10 µM
